Collected CTG-3D luminescence at 96 h values appear next to each entry.
- Tested on: HCI-024 (organoid from a breast cancer xenograft)
- assayComment: CTG-3D luminescence at 96 h relative to day-0 seeding control (ratio to day 0); higher = more growth / less cytotoxicity; PDxO 3D drug screen, 96 h, CTG-3D normalised to day-0 seeding control.
- runParameters: 0.005 µM; days in culture: 122
Give the figure by itself; no unit, no explanation.

Look over these answered cases.
NC1(C(=O)N[C@@H](CCO)c2ccc(Cl)cc2)CCN(c2nc[nH]c3nccc2-3)CC1	1.78
C[C@@H]1COCCN1c1cc(C2([S@](C)(=N)=O)CC2)nc(-c2cc[nH]c3nccc2-3)n1	1.89
Nc1ccn([C@@H]2O[C@H](CO)[C@@H](O)C2(F)F)c(=O)n1	1.93

Could you now consider this next compound?
Input C=CC(=O)N1CCC[C@@H](n2nc(-c3ccc(Oc4ccccc4)cc3)c3c(N)ncnc32)C1 . Output CTG-3D luminescence at 96 h: 2.14

Sourced from the supplement of paper PMC8882468
